Sequence of the target: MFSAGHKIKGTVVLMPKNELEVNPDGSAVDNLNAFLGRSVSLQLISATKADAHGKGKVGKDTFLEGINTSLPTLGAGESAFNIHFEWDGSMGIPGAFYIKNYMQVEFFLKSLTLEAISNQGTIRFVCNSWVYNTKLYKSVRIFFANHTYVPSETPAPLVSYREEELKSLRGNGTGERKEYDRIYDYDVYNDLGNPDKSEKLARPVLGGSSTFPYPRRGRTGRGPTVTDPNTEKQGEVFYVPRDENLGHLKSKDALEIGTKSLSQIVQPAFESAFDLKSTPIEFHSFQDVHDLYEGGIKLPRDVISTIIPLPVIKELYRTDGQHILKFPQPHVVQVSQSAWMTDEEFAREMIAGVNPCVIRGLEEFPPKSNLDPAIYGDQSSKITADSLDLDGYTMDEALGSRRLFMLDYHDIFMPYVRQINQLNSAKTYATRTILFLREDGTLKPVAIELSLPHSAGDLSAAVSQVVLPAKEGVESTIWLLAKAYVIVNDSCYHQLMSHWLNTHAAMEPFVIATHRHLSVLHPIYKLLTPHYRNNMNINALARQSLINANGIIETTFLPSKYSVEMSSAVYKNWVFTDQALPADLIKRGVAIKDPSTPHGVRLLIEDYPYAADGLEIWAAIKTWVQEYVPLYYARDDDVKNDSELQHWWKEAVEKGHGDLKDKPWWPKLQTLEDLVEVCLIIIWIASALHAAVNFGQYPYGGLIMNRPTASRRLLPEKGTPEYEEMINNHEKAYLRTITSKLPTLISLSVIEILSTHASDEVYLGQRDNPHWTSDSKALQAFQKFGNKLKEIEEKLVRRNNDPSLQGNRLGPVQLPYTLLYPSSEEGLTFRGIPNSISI
VALUE TYPE: pIC50
Scale for pIC50: -log10 of concentration given in mol/L; no unit attached.

Query: Give the measured pIC50 of Cc1cc(=O)oc2c3c(ccc12)OCC=CC3 .
Response: 3.74
